# Target: CDK10/Cyclin L2 (Homo sapiens, UniProt Q15131)
# Sequence (Q15131 whole entry): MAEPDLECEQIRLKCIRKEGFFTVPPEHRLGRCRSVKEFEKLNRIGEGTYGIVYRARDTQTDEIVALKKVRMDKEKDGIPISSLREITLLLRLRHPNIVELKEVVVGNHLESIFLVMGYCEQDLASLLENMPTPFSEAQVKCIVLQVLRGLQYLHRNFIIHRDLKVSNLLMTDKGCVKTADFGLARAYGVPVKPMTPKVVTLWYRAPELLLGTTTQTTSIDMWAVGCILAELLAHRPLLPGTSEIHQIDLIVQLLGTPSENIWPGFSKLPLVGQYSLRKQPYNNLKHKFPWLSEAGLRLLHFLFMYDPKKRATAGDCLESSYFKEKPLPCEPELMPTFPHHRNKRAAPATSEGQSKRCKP
# Assay summary: NanoBRET live-cell target engagement, CDK10-NanoLuc/Cyclin L2 in HEK-293
# Setup conditions: 10µM; average of experiments
So I've got a bunch of molecules here, and I need their CDK10/L2 Inhibition at 10µM (%) values.
Numbers only, in %.

Molecule: O=C1NC(=NCc2cccs2)S/C1=C\c1ccc2ncccc2c1
CDK10/L2 Inhibition at 10µM (%): 22.6
--
Molecule: O=C1NCCc2[nH]c(-c3ccncc3)cc21
CDK10/L2 Inhibition at 10µM (%): 11.0
--
Molecule: CN(C)C/C=C/C(=O)Nc1ccc(C(=O)Nc2cccc(Nc3ncc(Cl)c(-c4c[nH]c5ccccc45)n3)c2)cc1
CDK10/L2 Inhibition at 10µM (%): 48.0

Kindly review the next molecule as well.
input: Record request: CDK10/L2 Inhibition at 10µM (%) value, item Cc1c(Br)c(Br)c2c3c1nc(N1CCNCC1)n3CCC2.Cl [SEL 120-34A]
output: 33.9

* * *

# Target: CDK5/CDK5R1 (Homo sapiens, UniProt Q00535)
# Sequence (Q00535 whole entry): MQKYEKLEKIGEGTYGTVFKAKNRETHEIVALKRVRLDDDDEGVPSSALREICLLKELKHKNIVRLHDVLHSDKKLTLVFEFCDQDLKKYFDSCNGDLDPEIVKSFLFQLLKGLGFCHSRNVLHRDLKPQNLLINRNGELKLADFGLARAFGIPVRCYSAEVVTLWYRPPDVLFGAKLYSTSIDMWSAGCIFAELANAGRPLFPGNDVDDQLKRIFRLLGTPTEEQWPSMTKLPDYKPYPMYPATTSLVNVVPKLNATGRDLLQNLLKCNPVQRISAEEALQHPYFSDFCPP
# Sequence (Q15078 whole entry partner): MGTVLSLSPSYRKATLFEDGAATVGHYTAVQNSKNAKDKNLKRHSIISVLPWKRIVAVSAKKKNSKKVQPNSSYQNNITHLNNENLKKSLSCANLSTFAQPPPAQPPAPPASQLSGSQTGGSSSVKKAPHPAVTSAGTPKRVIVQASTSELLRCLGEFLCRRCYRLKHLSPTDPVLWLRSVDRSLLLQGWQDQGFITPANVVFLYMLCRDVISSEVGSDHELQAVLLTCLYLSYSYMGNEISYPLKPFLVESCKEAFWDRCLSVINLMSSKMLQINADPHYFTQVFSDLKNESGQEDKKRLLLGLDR
# Assay summary: NanoBRET live-cell target engagement, CDK5-NanoLuc/CDK5R1 in HEK-293
# Type: binding
# Setup conditions: CDK5/CDK5R1; average; read-out: Inhibition at 10µM (%)
Readout kind: inhibition at 10 µM (%)
Give bare numbers, in %.

Compound: CC(C)(C)c1nc(-c2cccc(NS(=O)(=O)c3c(F)cccc3F)c2F)c(-c2ccnc(N)n2)s1 [Dabrafenib]
Reported result: -2.2
//
Compound: COc1ccccc1-c1cc(Nc2cccc(CS(N)(=O)=O)c2)ncn1 [LDC000067]
Reported result: 11.4

Kindly review the next compound as well.
input: Record request: inhibition at 10 µM value, item CC(C)c1cnn2c(NCc3ccccc3)cc(NC[C@H]3CCNC[C@@H]3O)nc12 [CT7001]
output: 76.3

* * *

So I've got a bunch of compounds here, and I need their inhibition at 10 µM values.
# Target: CDK4/Cyclin D1 (Homo sapiens, UniProt P11802)
# Sequence (P11802 whole entry): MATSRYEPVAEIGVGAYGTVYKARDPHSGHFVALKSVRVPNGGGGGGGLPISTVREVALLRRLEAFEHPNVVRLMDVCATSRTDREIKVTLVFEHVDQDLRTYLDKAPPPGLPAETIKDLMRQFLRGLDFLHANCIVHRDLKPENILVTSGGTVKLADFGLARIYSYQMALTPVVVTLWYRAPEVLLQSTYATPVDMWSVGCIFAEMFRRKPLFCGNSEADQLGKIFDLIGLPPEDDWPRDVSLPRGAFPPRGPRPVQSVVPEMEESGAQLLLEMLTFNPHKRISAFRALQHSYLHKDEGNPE
# Sequence (P24385 whole entry partner): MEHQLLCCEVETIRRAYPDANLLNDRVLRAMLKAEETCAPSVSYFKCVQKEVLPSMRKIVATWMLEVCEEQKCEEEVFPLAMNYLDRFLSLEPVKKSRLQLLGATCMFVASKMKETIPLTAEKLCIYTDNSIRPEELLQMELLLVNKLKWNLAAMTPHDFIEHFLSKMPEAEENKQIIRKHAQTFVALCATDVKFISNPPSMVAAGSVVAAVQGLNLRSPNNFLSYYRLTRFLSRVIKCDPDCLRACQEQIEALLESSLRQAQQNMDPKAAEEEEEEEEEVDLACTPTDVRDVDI
# Assay summary: NanoBRET live-cell target engagement, NanoLuc-CDK4/Cyclin D1 in HEK-293
# Type: binding
# Setup conditions: CDK4/D1; 10µM; average of replicates; read-out: Inhibition at 10µM (%) Average
One number for each entry, in %.

Example cases with answers are listed next.
Compound: COc1cc(F)ccc1-c1cc(Nc2cc(CS(C)(=N)=O)ccn2)ncc1F (centres unmarked)
inhibition at 10 µM (%): 79.7
--
Compound: C[C@H]1CC[C@H](n2c3cnccc3c3cnc(Nc4ccc5c(n4)CCN(C(=O)CO)C5)nc32)CC1
inhibition at 10 µM (%): 92.7
--
Compound: CC(C)c1cnn2c(NCc3ccccc3)cc(NCCCCCCN)nc12
inhibition at 10 µM (%): 43.3

For every record below, what is its inhibition at 10 µM?
1. CCN1CCN(Cc2ccc(NC(=O)Nc3ccc(Oc4cc(NC)ncn4)cc3)cc2C(F)(F)F)CC1
2. Cc1ncc(-c2ccnc(Nc3ccc(S(C)(=O)=O)cc3)n2)n1C(C)C
3. COc1cc(F)ccc1-c1ncnc(Nc2cccc(C[S@](C)(=N)=O)c2)n1

output:
1. 75.5
2. 89.9
3. 31.5

For every record below, what is its inhibition at 10 µM?
1. CCN1CCN(Cc2ccc(Nc3ncc(F)c(-c4cc(F)c5nc(C)n(C(C)C)c5c4)n3)nc2)CC1
2. CCCCOc1c(C(=O)c2c(F)cc(C)cc2F)c[nH]c2nncc1-2

output:
[99.6, 49.1]

* * *

# Target: CDK16/Cyclin Y (Homo sapiens, UniProt Q00536)
# Sequence (Q00536 whole entry): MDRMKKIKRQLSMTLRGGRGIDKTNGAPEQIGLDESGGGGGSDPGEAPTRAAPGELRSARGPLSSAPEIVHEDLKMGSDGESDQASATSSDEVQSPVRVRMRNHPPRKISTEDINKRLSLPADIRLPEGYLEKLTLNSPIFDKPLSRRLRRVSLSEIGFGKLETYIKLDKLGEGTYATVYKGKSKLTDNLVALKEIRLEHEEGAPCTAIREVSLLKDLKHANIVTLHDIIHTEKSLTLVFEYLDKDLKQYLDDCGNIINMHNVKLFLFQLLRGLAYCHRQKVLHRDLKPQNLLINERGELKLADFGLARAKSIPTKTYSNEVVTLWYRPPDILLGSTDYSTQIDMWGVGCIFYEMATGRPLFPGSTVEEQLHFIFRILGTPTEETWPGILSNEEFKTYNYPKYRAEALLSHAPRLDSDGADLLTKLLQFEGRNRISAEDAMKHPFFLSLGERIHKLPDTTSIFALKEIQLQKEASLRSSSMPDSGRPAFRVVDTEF
# Sequence (Q8ND76 whole entry partner): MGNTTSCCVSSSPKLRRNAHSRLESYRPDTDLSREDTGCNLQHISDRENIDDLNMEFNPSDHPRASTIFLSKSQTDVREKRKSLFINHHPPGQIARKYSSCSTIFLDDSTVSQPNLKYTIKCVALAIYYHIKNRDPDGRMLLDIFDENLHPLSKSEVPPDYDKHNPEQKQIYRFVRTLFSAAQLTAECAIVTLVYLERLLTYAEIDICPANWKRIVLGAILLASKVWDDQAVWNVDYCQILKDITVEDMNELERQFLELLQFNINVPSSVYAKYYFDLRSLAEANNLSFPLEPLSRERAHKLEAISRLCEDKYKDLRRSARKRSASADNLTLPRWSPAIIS
# Assay summary: NanoBRET live-cell target engagement, CDK16-NanoLuc/Cyclin Y in HEK-293
# Format: binding
# Setup conditions: independent experiment 3; read-out: CDK16/Y IC50
Readout kind: pIC50
Answers are plain numbers, as −log10 of the molar value.

input: Record request: pIC50 value, item CN1CCN(c2ccc(Nc3ncc4cc5n(c4n3)C3(CCCCC3)CNC5=O)nc2)CC1
output: 6.14

* * *

# Target: CDK7 (Homo sapiens, UniProt P50613)
# Sequence (P50613 whole entry): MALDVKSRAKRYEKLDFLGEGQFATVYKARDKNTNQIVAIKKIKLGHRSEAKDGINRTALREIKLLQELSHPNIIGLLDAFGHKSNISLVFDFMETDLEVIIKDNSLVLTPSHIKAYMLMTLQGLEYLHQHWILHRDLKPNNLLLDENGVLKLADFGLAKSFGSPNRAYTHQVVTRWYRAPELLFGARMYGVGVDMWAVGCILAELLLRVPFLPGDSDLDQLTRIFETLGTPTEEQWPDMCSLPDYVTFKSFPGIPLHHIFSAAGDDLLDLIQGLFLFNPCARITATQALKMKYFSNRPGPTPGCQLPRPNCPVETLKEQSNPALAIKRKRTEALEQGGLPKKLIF
# Assay summary: NanoBRET live-cell target engagement, NanoLuc-CDK7 in HEK-293
# Format: binding
# Setup conditions: CDK7; experiment 3; read-out: IC50
Readout kind: pIC50
One number for each entry, as −log10 of the molar value.

Example cases with answers are listed next.
Compound: COc1ccc(F)cc1-c1cc(NC(=O)C2CCCNC2)ncc1Cl (stereo not shown)
Reported result: 6.67
--
Compound: CC(C)c1cnn2c(NCc3ccccc3-n3cccn3)nc(OC3CCCNC3)nc12 (stereo not shown)
Reported result: 7.48
--
Compound: CN1CCN(c2ccc(Nc3ncc4cc(C#N)c(=O)n(C5CCCC5)c4n3)cc2)CC1
Reported result: 6.86

Kindly review the next compound as well.
input: Record request: pIC50 value, item CN1CCN(Cc2ccc(NC(=O)Nc3ccc(Oc4ccnc(N)n4)cc3)cc2C(F)(F)F)CC1
output: 7.26

* * *

# Target: CDK1/Cyclin E1 (Homo sapiens)
# Sequence (P06493 whole entry): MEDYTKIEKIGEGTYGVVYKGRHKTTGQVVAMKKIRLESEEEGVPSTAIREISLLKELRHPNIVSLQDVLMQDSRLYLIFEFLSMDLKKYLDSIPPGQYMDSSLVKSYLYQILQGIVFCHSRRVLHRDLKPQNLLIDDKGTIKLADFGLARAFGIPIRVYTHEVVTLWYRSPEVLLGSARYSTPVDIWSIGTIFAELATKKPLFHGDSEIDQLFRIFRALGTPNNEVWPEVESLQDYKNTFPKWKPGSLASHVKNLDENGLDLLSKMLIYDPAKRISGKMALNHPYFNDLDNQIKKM
# Sequence (P24864 whole entry partner): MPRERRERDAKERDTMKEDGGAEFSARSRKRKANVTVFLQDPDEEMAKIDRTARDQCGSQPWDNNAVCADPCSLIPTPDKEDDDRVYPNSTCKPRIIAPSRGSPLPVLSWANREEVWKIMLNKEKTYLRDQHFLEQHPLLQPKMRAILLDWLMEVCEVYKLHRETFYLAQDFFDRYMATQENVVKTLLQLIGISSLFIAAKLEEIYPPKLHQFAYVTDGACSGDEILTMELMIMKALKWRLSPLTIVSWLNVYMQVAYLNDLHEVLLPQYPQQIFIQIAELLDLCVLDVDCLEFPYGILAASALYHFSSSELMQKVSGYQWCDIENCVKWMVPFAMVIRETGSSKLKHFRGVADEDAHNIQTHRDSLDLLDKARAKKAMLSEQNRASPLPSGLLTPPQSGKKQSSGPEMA
# Assay summary: NanoBRET live-cell target engagement, CDK1-NanoLuc/Cyclin E1 in HEK-293
# Type: binding
# Setup conditions: CDK1/E1; experiment 1
Note to self: use TRUE only for Inhibition at 10µM (%) readings below 80%; a reading exactly at 80% still gets FALSE.

Consider the worked cases shown below.
Compound: CN1CCC(c2c(O)cc(O)c3c(=O)cc(-c4ccccc4Cl)oc23)C1CO (centres unmarked) [P276-00]
Group: TRUE
//
Compound: CS(=O)(=O)N1CCC(NC(=O)c2[nH]ncc2NC(=O)c2c(Cl)cccc2Cl)CC1 [NVP-LCQ195]
Group: FALSE
//
Compound: CC(C)c1c2cc(-c3ccnc(N[C@H]4CC[C@H](NC5CCOCC5)CC4)n3)ccc2nn1C [LY2857785]
Group: TRUE

input: I'd appreciate it if you could check whether CC(C)c1cnn2c(NCc3ccccc3-n3cccn3)nc(OC3CCCNC3)nc12 (centres unmarked) [LDC4297] has Inhibition at 10µM (%) smaller than 80%.
output: TRUE

* * *

# Target: CDK8/Cyclin C (Homo sapiens)
# Sequence (P49336 whole entry): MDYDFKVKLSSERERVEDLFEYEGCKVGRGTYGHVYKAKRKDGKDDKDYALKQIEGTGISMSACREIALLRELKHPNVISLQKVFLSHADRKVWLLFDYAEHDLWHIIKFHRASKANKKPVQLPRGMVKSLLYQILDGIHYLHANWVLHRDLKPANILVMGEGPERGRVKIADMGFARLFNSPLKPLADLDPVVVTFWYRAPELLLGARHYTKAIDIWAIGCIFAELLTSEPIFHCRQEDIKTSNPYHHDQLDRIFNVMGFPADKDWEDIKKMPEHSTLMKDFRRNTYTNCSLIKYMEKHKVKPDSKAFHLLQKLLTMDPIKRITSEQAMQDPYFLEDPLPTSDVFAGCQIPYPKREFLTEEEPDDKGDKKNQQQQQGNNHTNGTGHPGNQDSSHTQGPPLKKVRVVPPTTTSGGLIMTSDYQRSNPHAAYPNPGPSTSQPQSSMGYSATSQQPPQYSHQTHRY
# Sequence (P24863 whole entry partner): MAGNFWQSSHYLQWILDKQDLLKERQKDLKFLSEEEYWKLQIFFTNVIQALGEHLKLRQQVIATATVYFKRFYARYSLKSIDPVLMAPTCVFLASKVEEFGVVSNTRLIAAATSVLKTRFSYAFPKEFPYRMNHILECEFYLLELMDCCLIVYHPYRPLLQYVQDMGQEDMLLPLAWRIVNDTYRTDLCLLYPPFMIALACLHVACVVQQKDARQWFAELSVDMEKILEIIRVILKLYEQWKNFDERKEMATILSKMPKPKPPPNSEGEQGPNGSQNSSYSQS
# Assay summary: NanoBRET live-cell target engagement, NanoLuc-CDK8/Cyclin C in HEK-293
# Format: binding
# Setup conditions: CDK8/C; average (± SEM where n=3); read-out: IC50
Readout kind: pIC50
Give bare numbers, as −log10 of the molar value.

input: Record request: pIC50 value, item CCn1cnc2c(Nc3cccc(Cl)c3)nc(N[C@@H]3CCCC[C@@H]3N)nc21 [CGP74514A]
output: 6.59

* * *

# Target: CDK14/Cyclin Y (Homo sapiens, UniProt O94921)
# Sequence (O94921 whole entry): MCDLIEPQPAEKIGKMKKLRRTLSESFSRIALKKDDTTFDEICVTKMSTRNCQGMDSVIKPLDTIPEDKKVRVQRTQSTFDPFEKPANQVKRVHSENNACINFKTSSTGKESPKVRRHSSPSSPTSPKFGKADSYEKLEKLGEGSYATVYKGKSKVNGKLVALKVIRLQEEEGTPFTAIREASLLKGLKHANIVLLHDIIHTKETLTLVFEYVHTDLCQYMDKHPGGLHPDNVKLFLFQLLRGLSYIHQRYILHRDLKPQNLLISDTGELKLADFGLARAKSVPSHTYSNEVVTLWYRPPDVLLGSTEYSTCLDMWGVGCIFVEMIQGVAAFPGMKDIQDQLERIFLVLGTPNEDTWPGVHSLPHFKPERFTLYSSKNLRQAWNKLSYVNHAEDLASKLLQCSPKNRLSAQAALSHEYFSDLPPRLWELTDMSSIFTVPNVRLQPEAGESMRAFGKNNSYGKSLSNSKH
# Sequence (Q8ND76 whole entry partner): as the sequence (Q8ND76 whole entry partner) above
# Assay summary: NanoBRET live-cell target engagement, CDK14-NanoLuc/Cyclin Y in HEK-293
# Assay type: binding
# Setup conditions: CDK14/Y; experiment 2; read-out: Inhibition at 10µM (%)
Lab note: anything with inhibition at 10 µM at or over 20% counts as Condition met; the rest go in Condition not met.

Consider the worked cases shown below.
Compound: CC(C)(C)c1nc(-c2cccc(NS(=O)(=O)c3c(F)cccc3F)c2F)c(-c2ccnc(N)n2)s1 [Dabrafenib]
Group: Condition not met
--
Compound: CC(C)N1CCN(c2ccc(Nc3ncc4cc5n(c4n3)C3(CCCCC3)CNC5=O)nc2)CC1 [Lerociclib]
Group: Condition met
--
Compound: NS(=O)(=O)c1ccc(Nc2nc(OCC3CCCCC3)c3nc[nH]c3n2)cc1 [NU6102]
Group: Condition not met
--
Compound: CN1CCN(Cc2ccc(NC(=O)Nc3ccc(Oc4ccnc(N)n4)cc3)cc2C(F)(F)F)CC1 [K03861]
Group: Condition met
--
Compound: CC(C)c1cnn2c(NCc3ccccc3)cc(NC[C@H]3CCNC[C@@H]3O)nc12 [CT7001]
Group: Condition met

Pending compound:
input: Exam item: decide whether the reported inhibition at 10 µM for COc1ccc(F)cc1-c1cc(NC(=O)C2CCCNC2)ncc1Cl (stereo not drawn) [CDK inhibitor 2] is at least 20%.
output: Condition met

* * *

# Target: CDK5/CDK5R1 (Homo sapiens)
# Assay summary: NanoBRET live-cell target engagement, CDK5-NanoLuc/CDK5R1 in HEK-293
# Format: binding
# Setup conditions: CDK5/CDK5R1; 10µM; read-out: Inhibition at 10µM (%) Replicate 2
So I've got a bunch of compounds here, and I need their inhibition at 10 µM values.
Numbers only, in %.

Example cases with answers are listed next.
Compound: CCN1CCN(Cc2ccc(NC(=O)Nc3ccc(Oc4cc(NC)ncn4)cc3)cc2C(F)(F)F)CC1
Unit descriptor: %
inhibition at 10 µM: 63.5
//
Compound: CCCCOc1c(C(=O)c2c(F)cc(C)cc2F)c[nH]c2nncc1-2
Unit descriptor: %
inhibition at 10 µM: 33.9
//
Compound: CCN1CCN(Cc2ccc(Nc3ncc(F)c(-c4cc(F)c5nc(C)n(C(C)C)c5c4)n3)nc2)CC1
Unit descriptor: %
inhibition at 10 µM: 43.8
//
Compound: C[C@H]1CC[C@H](n2c3cnccc3c3cnc(Nc4ccc5c(n4)CCN(C(=O)CO)C5)nc32)CC1
Unit descriptor: %
inhibition at 10 µM: 19.6
//
Compound: Cc1ncc(-c2ccnc(Nc3ccc(S(C)(=O)=O)cc3)n2)n1C(C)C
Unit descriptor: %
inhibition at 10 µM: 93.8
//
Compound: COc1cc(F)ccc1-c1ncnc(Nc2cccc(C[S@](C)(=N)=O)c2)n1
Unit descriptor: %
inhibition at 10 µM: 28.3
//
Compound: CC(C)c1cnn2c(NCc3ccccc3)cc(NCCCCCCN)nc12
Unit descriptor: %
inhibition at 10 µM: 31.7

input: Record request: inhibition at 10 µM value, item COc1cc(F)ccc1-c1cc(Nc2cc(CS(C)(=N)=O)ccn2)ncc1F (centres unmarked)
output: 68.3
